# Target or test system: Human DYRK1B (Homo sapiens)
# Construct: purchased Invitrogen PR8350B (former PV4649)
# Sequence (Q9Y463 whole entry): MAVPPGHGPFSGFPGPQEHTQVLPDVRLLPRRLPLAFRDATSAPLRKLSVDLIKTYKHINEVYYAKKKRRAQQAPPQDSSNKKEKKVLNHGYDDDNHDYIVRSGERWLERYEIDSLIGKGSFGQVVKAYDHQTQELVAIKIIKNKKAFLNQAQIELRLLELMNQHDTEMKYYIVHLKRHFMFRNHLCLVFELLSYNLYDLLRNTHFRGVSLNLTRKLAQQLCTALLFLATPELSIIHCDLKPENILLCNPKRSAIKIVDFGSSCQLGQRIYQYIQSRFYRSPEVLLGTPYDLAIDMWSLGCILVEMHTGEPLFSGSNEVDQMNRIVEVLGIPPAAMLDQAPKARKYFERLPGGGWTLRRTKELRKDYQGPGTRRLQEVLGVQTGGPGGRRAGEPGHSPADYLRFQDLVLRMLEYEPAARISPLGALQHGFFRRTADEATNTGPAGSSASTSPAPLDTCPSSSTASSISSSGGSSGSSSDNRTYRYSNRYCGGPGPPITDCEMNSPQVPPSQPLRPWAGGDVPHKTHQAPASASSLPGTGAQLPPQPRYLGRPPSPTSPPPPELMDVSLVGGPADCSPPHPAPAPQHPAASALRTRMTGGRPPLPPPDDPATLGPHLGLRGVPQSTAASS
# Procedure text: DYRK1B Kinase TR-FRET (IMAP-Tb) Assay
# Format: biochemical
# Cond: TR-FRET (IMAP-Tb); ATP 70 μM; 37° C. 60 minutes; read-out: Enzyme IC50 (μM) DYRK1B
Counter-ions that a name gives are not always drawn.
For each record, check the reported IC50: if it is below 0.06 µM write YES, else write NO.

{"Molecule": "CC(=O)N1CCN(c2ncc3cc(C(=O)Nc4cc(C(=O)NCc5cccc(Cl)c5)ccc4Cl)c(=O)[nH]c3n2)CC1", "Target or test system": "Human DYRK1B (Homo sapiens)", "Label class": "YES"}
{"Molecule": "O=C(NCc1cccc(Cl)c1)c1ccc(Cl)c(NC(=O)c2cc3cnc(N4C[C@H]5CC[C@@H](C4)O5)nc3[nH]c2=O)c1", "Target or test system": "Human DYRK1B (Homo sapiens)", "Label class": "NO"}
{"Molecule": "O=C(NCc1cccc(F)c1)c1ccc(Cl)c(NC(=O)c2cc3cnc(N4CCOCC4)nc3[nH]c2=O)c1", "Target or test system": "Human DYRK1B (Homo sapiens)", "Label class": "YES"}
{"Molecule": "COC(=O)c1ccc(C)c(NC(=O)c2cc3cnc(N4CCOCC4)nc3[nH]c2=O)c1", "Target or test system": "Human DYRK1B (Homo sapiens)", "Label class": "NO"}
{"Molecule": "COc1ncc2cc(C(=O)Nc3cc(C(=O)N[C@H](CCN)c4ccccc4)ccc3Cl)c(=O)[nH]c2n1", "Target or test system": "Human DYRK1B (Homo sapiens)", "Label class": "YES"}
{"Molecule": "COc1ncc2cc(C(=O)Nc3cc(C(=O)NCc4cccc(Cl)c4)ccc3Cl)c(=O)[nH]c2n1", "Target or test system": "Human DYRK1B (Homo sapiens)", "Label class": "NO"}
{"Molecule": "Cc1ncc2cc(C(=O)Nc3cc(C(=O)NC(CN)c4ccccc4)ccc3Cl)c(=O)[nH]c2n1 (stereo not shown) [Example 114, hydrochloride]", "Target or test system": "Human DYRK1B (Homo sapiens)", "Label class": "YES"}

----------
The reader will find reported log10 IC50 values listed item by item below.
# Target or test system: Human DYRK1B (Homo sapiens)
# Construct: purchased Invitrogen PR8350B (former PV4649)
# Procedure text: DYRK1B Kinase TR-FRET (IMAP-Tb) Assay
# Format: biochemical
# Cond: TR-FRET (IMAP-Tb); ATP 70 μM; 37° C. 60 minutes; read-out: Enzyme IC50 (μM) DYRK1B
Counter-ions that a name gives are not always drawn.
Quantity kind: log10 IC50 (log10 of the value in µM)

{"Compound": "COC(=O)c1ccc(Br)c(NC(=O)c2cc3cnc(OC)nc3[nH]c2=O)c1", "Reading": -0.66}
{"Compound": "O=C(NC(CO)c1ccccc1)c1ccc(Cl)c(NC(=O)c2cc3cnc(N4C[C@H]5CC[C@@H](C4)O5)nc3[nH]c2=O)c1 (stereo partly drawn)", "Reading": -0.83}
{"Compound": "NC1CCN(c2ncc3cc(C(=O)Nc4cc(C(=O)NC(CO)c5ccccc5)ccc4Cl)c(=O)[nH]c3n2)CC1 (stereo not drawn) [Example 147, hydrochloride]", "Reading": -0.32}
{"Compound": "COc1ncc2cc(C(=O)Nc3cc(C(=O)NCc4ccccc4)ccc3C)c(=O)[nH]c2n1", "Reading": 0.30}
{"Compound": "COc1ncc2cc(C(=O)Nc3cc(C(=O)NC(c4ccccc4)C(F)(F)CN)ccc3Cl)c(=O)[nH]c2n1 (stereo not drawn)", "Reading": -0.47}
{"Compound": "CN1CCN(CCNc2ncc3cc(C(=O)Nc4cc(C(=O)NCc5cccc(Cl)c5)ccc4Cl)c(=O)[nH]c3n2)CC1 [Example 99]", "Reading": -1.46}
{"Compound": "CN1CCN(c2ncc3cc(C(=O)Nc4cc(C(=O)NCc5cc(F)ccc5F)ccc4Cl)c(=O)[nH]c3n2)CC1", "Reading": -0.45}
{"Compound": "N[C@H]1CC[C@@H](Nc2ncc3cc(C(=O)Nc4cc(C(=O)NCc5cccc(Cl)c5)ccc4Cl)c(=O)[nH]c3n2)CC1 [Example 118, hydrochloride]", "Reading": -1.12}
{"Compound": "O=C(NCc1cccc(Cl)c1)c1ccc(Cl)c(NC(=O)c2cc3cnc(OCCCN4CCOCC4)nc3[nH]c2=O)c1", "Reading": -0.64}
{"Compound": "COc1ncc2cc(C(=O)Nc3cc(C(=O)OCc4ccccc4)ccc3C)c(=O)[nH]c2n1", "Reading": -0.30}
{"Compound": "CCN(CC)CCOc1ncc2cc(C(=O)Nc3cc(C(=O)OC)ccc3Cl)c(=O)[nH]c2n1", "Reading": -0.07}
{"Compound": "CCOC(=O)c1ccc(Cl)c(NC(=O)c2cc3cnc(OC)nc3[nH]c2=O)c1", "Reading": 0.05}
{"Compound": "COc1ncc2cc(C(=O)Nc3cc(C(=O)NC(CCN)c4ccccc4)ccc3Cl)c(=O)[nH]c2n1 (stereo not drawn)", "Reading": -1.89}
{"Compound": "CN1CCN(CCCNc2ncc3cc(C(=O)Nc4cc(C(=O)NC(CN)c5ccccc5)ccc4Cl)c(=O)[nH]c3n2)CC1 (stereo not drawn) [Example 122]", "Reading": -2.05}
